Literature survey of Ki (system: UniProt P08912).
readout-name: Ki (nM)

Before answering, review these 3 worked examples.
1) COc1nsnc1OCCOCCOCCOCCOCCOc1nsnc1C1=CCCN(C)C1: 100
2) CN(CCc1cccc(F)c1)[C@H]1C2C3CC4C2C(=O)C2C4C3C21 (some centres not stated): 4240
3) CN(C)c1ccc2c(-c3ccc(-c4cn(CCCCCn5cc(CCCCCN6CCC(OC(=O)Nc7ccc(F)cc7-c7ccc(F)c(Cl)c7)CC6)nn5)nn4)cc3C(=O)[O-])c3ccc(=[N+](C)C)cc-3oc2c1: 9.7

1: C[N+]1(C)CCC[C@H]1[C@H]1C[S+]([O-])[C@@](c2ccccc2)(C2CCCCC2)O1.[I-] (stereo in doubt; (+)-13)
2: CC1(C)C(/C=C/C=C/C=C2/N(CCCCCC(=O)NCCCCC3CCN(CC(=O)N4c5ccccc5NC(=O)c5ccccc54)CC3)c3ccccc3C2(C)C)=[N+](CCCCS(=O)(=O)[O-])c2ccccc21
Ask: In terms of reported Ki, does 1 or 2 have the smaller number? Your choice should be expressed through its label.
Result: 1

P: CN1/C(=C/C=C/C=C/C2=[N+](CCCCCC(=O)NCCCCCCCCN3CCC(COC(=O)Nc4ccc(F)cc4-c4ccc(F)c(Cl)c4)CC3)c3ccccc3C2(C)C)C(C)(C)c2ccccc21
Q: CN1CCC(OC(=O)N(CCc2ccc(F)cc2)c2ccccc2)CC1
Ask: Of the two listed items, P and Q , which carries the larger Ki figure? Your choice should be expressed through its label.
Result: Q
(Q: 60 nM, P: 2.6 nM)

====

- target-of-assay: Muscarinic acetylcholine receptor M5 (Homo sapiens, UniProt P08912)
- Sequence (P08912 whole entry): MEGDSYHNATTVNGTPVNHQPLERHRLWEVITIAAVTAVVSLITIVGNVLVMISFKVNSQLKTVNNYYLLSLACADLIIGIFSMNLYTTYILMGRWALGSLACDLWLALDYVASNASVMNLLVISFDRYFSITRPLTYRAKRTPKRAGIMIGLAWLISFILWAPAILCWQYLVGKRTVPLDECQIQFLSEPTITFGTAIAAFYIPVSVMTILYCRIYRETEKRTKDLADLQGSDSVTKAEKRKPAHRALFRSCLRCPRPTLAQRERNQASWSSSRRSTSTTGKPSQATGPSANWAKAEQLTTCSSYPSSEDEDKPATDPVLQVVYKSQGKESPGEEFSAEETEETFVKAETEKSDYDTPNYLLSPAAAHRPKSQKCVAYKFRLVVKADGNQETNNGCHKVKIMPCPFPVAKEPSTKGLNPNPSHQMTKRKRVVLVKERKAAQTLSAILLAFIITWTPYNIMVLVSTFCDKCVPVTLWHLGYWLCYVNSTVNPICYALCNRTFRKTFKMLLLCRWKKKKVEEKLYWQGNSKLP
Literature survey of Ki (system: Muscarinic acetylcholine receptor M5 (Homo sapiens, UniProt P08912)).
readout-name: Ki (nM)

1) CCC(C1=C(CCN(C)C)Cc2ccccc21)c1ccccn1 (stereo not given): 676
2) CN1CCC[C@H]1[C@H]1C[S+]([O-])[C@@](c2ccccc2)(C2CCCCC2)O1 (stereo in doubt; (+)-7): 25.1
3) CCC(=O)NC1CN(CCCCC2CCN(CC(=O)N3c4ccccc4NC(=O)c4ccccc43)CC2)CCN(CCCCC2CCN(CC(=O)N3c4ccccc4NC(=O)c4ccccc43)CC2)C1.O=C(O)C(F)(F)F.O=C(O)C(F)(F)F.O=C(O)C(F)(F)F.O=C(O)C(F)(F)F: 77.6
4) CN1CCC[C@@H]1[C@@H]1C[S+]([O-])[C@@](c2ccccc2)(C2CCCCC2)O1 (stereo in doubt; (+)-9): 288
5) CN1CCCC(Oc2nc3ccccc3n2-c2ccccc2)C1 (racemic): 77

P: CCN/C(=N\S(=O)(=O)c1cccc(Cl)c1)N1CC2(C=N1)CCNCC2
Q: Cc1cc(/C=C/C=C/c2ccc(N(C)C)cc2)cc(C)[n+]1CCCCC1CCN(CC(=O)N2c3ccccc3NC(=O)c3ccccc32)CC1
Ask: Of the two listed items, P and Q , which carries the larger Ki figure? Your choice should be expressed through its label.
Result: P
(P: 10000 nM, Q: 200 nM)

a: CC1(C)C(/C=C/C=C/C=C2/N(CCCCCC(=O)NCCN3CCN(CCCCC4CCN(CC(=O)N5c6ccccc6NC(=O)c6ccccc65)CC4)CC3)c3ccccc3C2(C)C)=[N+](CCCCS(=O)(=O)[O-])c2ccccc21
b: CN1CCC[C@@H]1[C@@H]1C[S+]([O-])C(c2ccccc2)(c2ccccc2)O1 (stereo in doubt; (+)-5)
Ask: Of the two listed items, a and b , which carries the larger Ki figure? Your choice should be expressed through its label.
Result: b

====

Target sequence: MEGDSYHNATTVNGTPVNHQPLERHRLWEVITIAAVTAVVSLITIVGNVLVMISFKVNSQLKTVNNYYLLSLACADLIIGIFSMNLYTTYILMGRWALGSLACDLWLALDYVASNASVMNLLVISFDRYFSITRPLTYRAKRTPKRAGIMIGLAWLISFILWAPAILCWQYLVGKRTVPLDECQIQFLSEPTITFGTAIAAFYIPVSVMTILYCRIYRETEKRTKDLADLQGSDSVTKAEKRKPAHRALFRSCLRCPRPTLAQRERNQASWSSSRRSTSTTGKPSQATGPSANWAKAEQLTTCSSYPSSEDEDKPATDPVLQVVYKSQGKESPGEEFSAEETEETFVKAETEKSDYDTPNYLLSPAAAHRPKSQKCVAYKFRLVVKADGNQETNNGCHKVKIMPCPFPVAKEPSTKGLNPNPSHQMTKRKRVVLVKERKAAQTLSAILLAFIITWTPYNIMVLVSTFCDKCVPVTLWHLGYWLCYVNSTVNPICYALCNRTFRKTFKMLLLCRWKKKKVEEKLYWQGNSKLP
Literature survey of Ki (system: the protein given by its sequence).
readout-name: Ki (µM)

1. CC(C1=C(CCN(C)C)Cc2ccc(Cl)cc21)c1ccccn1 (stereo not given): 0.912
2. CN(C)CCC1=C(C(C)(C)c2ccccn2)c2ccccc2C1: 0.372
3. O=C(NC[C@@H]1CCCNC1)[C@H]1CCCN1C(=O)[C@@H]1C[C@@H](O)CN1C(=O)CC(c1ccc(F)cc1)(c1ccc(F)cc1)c1ccc(F)cc1: 1.7

I: c1coc([C@@H]2CCCN2)c1
II: COc1nsc(OCCCOCCCOCCCOc2nsnc2C2=CCCN(C)C2)n1
Ask: Of the two listed items, I and II , which carries the larger Ki figure? Your choice should be expressed through its label.
Result: I
(I: 47.9 µM, II: 0.251 µM)

P: CCC(C1=C(CCN(C)C)Cc2cc(Cl)ccc21)c1ccccn1 (stereo not given)
Q: CC(=O)N[C@@H](CCCCN)C(=O)N[C@@H](C)C(=O)N[C@@H](CCCNC(=N)N)C(=O)NCCN1CCN(CCCCC2CCN(CC(=O)N3c4ccccc4NC(=O)c4ccccc43)CC2)CC1
Ask: In terms of reported Ki, does P or Q have the smaller number? Your choice should be expressed through its label.
Result: Q
(Q: 0.398 µM, P: 0.776 µM)

I: NCCN1CCN(CCCCC2CCN(CC(=O)N3c4ccccc4NC(=O)c4ccccc43)CC2)CC1
II: O=C1CCc2ccccc2N1CCCN1CCC(CCCCCCCCCO)CC1
III: CN1CCC=C(c2nsnc2OCCOCCOCCOCCO)C1
IV: Cc1nccn1CC#CCN1CCCC1=O
Ask: Ascending sort, Ki. The reply should contain the labels ordered as requested.
Result: IV, I, II, III
(IV: 0.0513 µM, I: 0.234 µM, II: 0.851 µM, III: 3.98 µM)

a: COc1ccc([S+]([O-])c2ccc(C(C)C3CCN(C4CCCCC4)CC3)cc2)cc1 (stereo not given)
b: CN(CCCN(C)CCCC(O)(c1ccccc1)c1ccccc1)CCCC(O)(c1ccccc1)c1ccccc1
Ask: Of the two listed items, a and b , which carries the larger Ki figure? Your choice should be expressed through its label.
Result: b
(b: 0.832 µM, a: 0.00166 µM)

a: O=C1CCc2ccccc2N1CCCN1CCC(CCCCCCCCCCCCCO)CC1
b: COc1ccccc1CNCCCCCCNCCCCCCCCNCCCCCCNCc1ccccc1OC
Ask: In terms of reported Ki, does a or b have the smaller number? Your choice should be expressed through its label.
Result: a
(a: 0.339 µM, b: 0.55 µM)

I: C[N+](C)(CC#CCOC1=NOCC1)CCCCCC[N+](C)(C)CCCN1C(=O)c2ccccc2C1=O
II: CN(CCCC(O)(c1ccccc1)c1ccccc1)CCN(C)CCCC(O)(c1ccccc1)c1ccccc1
Ask: Of the two listed items, I and II , which carries the larger Ki figure? Your choice should be expressed through its label.
Result: II
(II: 229 µM, I: 30.2 µM)

====

Literature survey of Ki (system: Muscarinic acetylcholine receptor M5 (Homo sapiens, UniProt P08912)).
readout-name: Ki (µM)

I: CN1CCCC(OC(=O)N(CCc2ccc(F)cc2)c2ccccc2)C1 (stereo not given)
II: C[N+]1(C)CCC[C@H]1[C@H]1C[S+]([O-])C(c2ccccc2)(c2ccccc2)O1.[I-] (stereo in doubt; (-)-11)
III: O=C1CCc2ccccc2N1CCCN1CCC(CCCO)CC1
Ask: Reorder the list above by recorded Ki in ascending order. The reply should contain the labels ordered as requested.
Result: II, I, III
